# targetEntity: Orexin receptor type 2 (Homo sapiens)
# Sequence (O43614 whole entry): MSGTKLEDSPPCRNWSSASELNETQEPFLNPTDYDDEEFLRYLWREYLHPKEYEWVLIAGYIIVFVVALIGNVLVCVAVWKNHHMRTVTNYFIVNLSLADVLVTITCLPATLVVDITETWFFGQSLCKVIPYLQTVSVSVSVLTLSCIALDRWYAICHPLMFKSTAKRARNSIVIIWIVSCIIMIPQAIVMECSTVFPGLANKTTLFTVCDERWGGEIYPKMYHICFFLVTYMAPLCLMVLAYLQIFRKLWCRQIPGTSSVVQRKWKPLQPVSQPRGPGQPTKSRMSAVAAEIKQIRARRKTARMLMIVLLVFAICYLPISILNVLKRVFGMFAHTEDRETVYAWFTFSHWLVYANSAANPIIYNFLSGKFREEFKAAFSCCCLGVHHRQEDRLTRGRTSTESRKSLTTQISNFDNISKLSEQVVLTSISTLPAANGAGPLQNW
pIC50: −log10 of the molar value.
pIC50 values by entry
testReadout: pIC50

>>> df
                                   compound  valueobserved
0  COC(=O)N1[C@H](C)C[C@H](NS(C)(=O)=O)[C@@H]1CO[C@H]1CC[C@@H](c2ccccc2C(F)(F)F)CC1           8.17
1  COC(=O)N1[C@H](C)C[C@H](NS(C)(=O)=O)[C@@H]1CO[C@H]1CC[C@@H](c2c(F)ccc(F)c2F)CC1           8.97
2  C[C@@H]1C[C@H](NS(=O)(=O)N(C)C)[C@H](CO[C@H]2CC[C@@H](c3cc(F)ccc3F)CC2)N1C(=O)OCC(F)F           9.18
3  COC(=O)N1[C@H](C)C[C@H](NS(=O)(=O)N(C)C)[C@@H]1CO[C@H]1CC[C@@H](c2cc(F)ccc2F)CC1           9.33
4  COC(=O)N1[C@H](C)C[C@H](NS(=O)(=O)CF)[C@@H]1COC1CCC(c2cccc(F)c2)CC1 (some centres not stated)           8.85
5  COC(=O)N1[C@H](C)C[C@H](NS(=O)(=O)N(C)C)[C@@H]1CO[C@H]1CC[C@H](c2ccc(C#N)c(C)c2)CC1           7.90
6  COC(=O)N1[C@H](C)C[C@H](NS(C)(=O)=O)[C@@H]1CO[C@H]1CC[C@@H](C(C)C)CC1           7.75

* * *

pIC50: −log10 of the molar value.
Reported pIC50, Orexin receptor type 2 (Homo sapiens, UniProt O43614).
testReadout: pIC50

In [3]: df
Out[3]:
                                   compound  valueobserved
0  CC[C@@H]1C[C@H](NS(C)(=O)=O)[C@H](CO[C@H]2CC[C@@H](c3ccccc3)CC2)N1C(=O)OC           8.52
1  COC(=O)N1[C@H](C)C[C@H](NS(C)(=O)=O)[C@@H]1CO[C@H]1CC[C@@H](c2cc(F)ccc2F)CC1           8.78
2  C=C[C@@H]1C[C@H](NS(C)(=O)=O)[C@H](CO[C@H]2CC[C@@H](c3ccccc3)CC2)N1C(=O)OC (relative stereo)           8.03
3  CCc1ccccc1[C@H]1CC[C@H](OC[C@H]2[C@@H](NS(=O)(=O)N(C)C)C[C@@H](C)N2C(=O)OC)CC1           6.95
